Cited source for all entries: patent US20240117038A1

Target: T1, cynomolgus CX3CR1 (cynomolgus monkey (Macaca fascicularis), UniProt P49238 1-355 (human entry))
T1 construct: Overexpressed on CHO K1 cells; also called cyno CX3CR1; cyCX3CR1
T1 chain: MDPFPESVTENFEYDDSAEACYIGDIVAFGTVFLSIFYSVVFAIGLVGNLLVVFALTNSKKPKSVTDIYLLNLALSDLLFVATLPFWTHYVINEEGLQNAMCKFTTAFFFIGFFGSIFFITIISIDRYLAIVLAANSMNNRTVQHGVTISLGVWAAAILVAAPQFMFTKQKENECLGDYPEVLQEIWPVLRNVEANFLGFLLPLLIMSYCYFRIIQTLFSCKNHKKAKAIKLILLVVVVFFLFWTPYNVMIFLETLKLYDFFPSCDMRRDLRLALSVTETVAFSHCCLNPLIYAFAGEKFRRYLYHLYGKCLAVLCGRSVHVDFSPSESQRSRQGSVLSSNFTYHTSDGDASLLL
Test: flow cytometry on CHO K1 cyCX3CR1 cells, 30 uM HSA
Experimental: CHO cells overexpressing human or cynomolgus CX3CR1 were generated using techniques known in the art. Cells were harvested and resuspended in assay buffer (PBS, 2% FBS, 0.05% NaN3) and seeded separately in 384-well Bio-One V-bottom plates (Greiner, Cat. No. 781280), with a total of 2E04 cells seeded per well. […] Cell suspensions were analyzed with iQue Screener PLUS (Intellicyt). […]
pEC50: −log10 of the molar value.

binder	pEC50
A041600026 (VHH, Trivalent ISVD construct; also called 66B02_SO (E1D)-20GS-ALB23002-20GS-66B02_SO-A) DVQLVESGGGSVQPGGSLRLSCAASGSIFSSTAMAWYRQAPGKRRDLVAAINTVGVTKYADSVKGRFTISRDNAKNTVYLQMNSLRPEDTALYYCTSDPRRGWDTRYWGQGTLVTVSSGGGGSGGGGSGGGGSGGGGSEVQLVESGGGVVQPGGSLRLSCAASGFTFRSFGMSWVRQAPGKGPEWVSSISGSGSDTLYADSVKGRFTISRDNSKNTLYLQMNSLRPEDTALYYCTIGGSLSRSSQGTLVTVSSGGGGSGGGGSGGGGSGGGGSEVQLVESGGGSVQPGGSLRLSCAASGSIFSSTAMAWYRQAPGKRRDLVAAINTVGVTKYADSVKGRFTISRDNAKNTVYLQMNSLRPEDTALYYCTSDPRRGWDTRYWGQGTLVTVSSA	9.60
A041600042 (VHH, Trivalent ISVD construct (two anti-CX3CR1 ISVDs, one anti-albumin ISVD), C-terminal alanine included in the entry; also called 66B02_SO (E1D)-20GS-66B02_SO-20GS-ALB23002-A) DVQLVESGGGSVQPGGSLRLSCAASGSIFSSTAMAWYRQAPGKRRDLVAAINTVGVTKYADSVKGRFTISRDNAKNTVYLQMNSLRPEDTALYYCTSDPRRGWDTRYWGQGTLVTVSSGGGGSGGGGSGGGGSGGGGSEVQLVESGGGSVQPGGSLRLSCAASGSIFSSTAMAWYRQAPGKRRDLVAAINTVGVTKYADSVKGRFTISRDNAKNTVYLQMNSLRPEDTALYYCTSDPRRGWDTRYWGQGTLVTVSSGGGGSGGGGSGGGGSGGGGSEVQLVESGGGVVQPGGSLRLSCAASGFTFRSFGMSWVRQAPGKGPEWVSSISGSGSDTLYADSVKGRFTISRDNSKNTLYLQMNSLRPEDTALYYCTIGGSLSRSSQGTLVTVSSA	9.92
